# credit: ChEMBL document CHEMBL3232888

testDescription: Aqueous solubility of the compound in 2% DMSO at pH 7.4 by HPLC analysis
Format: physicochemical
particulars: aqueous medium with 2% DMSO
Exercise: for every item that follows, state its recorded solubility.

**Q:** Suppose we examine the molecule CCCCCCCc1[nH]c2ccc([N+](=O)[O-])cc2c(=O)c1CO ; what solubility value has been reported?
**A:** 5 µM

**Q:** Suppose we examine the molecule CCCCCCCc1cc(=O)c2cc([N+](=O)[O-])ccc2[nH]1 ; what solubility value has been reported?
**A:** < 5 µM

**Q:** Suppose we examine the molecule CCCCCCCc1[nH]c2ccc([N+](=O)[O-])cc2c(=O)c1C(=O)NO ; what solubility value has been reported?
**A:** > 200 µM

**Q:** Suppose we examine the molecule CCCCCOCc1cc(=O)c2ccccc2[nH]1 ; what solubility value has been reported?
**A:** > 200 µM

**Q:** Suppose we examine the molecule CCCCCOCc1cc(=O)c2cc([N+](=O)[O-])ccc2[nH]1 ; what solubility value has been reported?
**A:** 15 µM

**Q:** Suppose we examine the molecule CCCCCCCc1[nH]c2ccc([N+](=O)[O-])cc2c(=O)c1O ; what solubility value has been reported?
**A:** < 5 µM

---

Test system: Pseudomonas aeruginosa
testDescription: Antagonist activity at Pseudomonas aeruginosa PqsR expressed in Escherichia coli DH5alpha assessed as inhibition of PQS-induced transcriptional activity at 50 nM by beta-galactosidase reporter gene assay relative to PQS
Exercise: for every item that follows, state its recorded inhibition.
Supply the numeric figure in %, leaving out any unit text.

**Q:** Suppose we examine the compound CCCCCOCc1cc(=O)c2cc(C(F)(F)F)ccc2[nH]1 ; what inhibition value has been reported?
**A:** 29

**Q:** Suppose we examine the compound CCCCCCCc1[nH]c2ccccc2c(=O)c1C(=O)OCC ; what inhibition value has been reported?
**A:** 18

**Q:** Suppose we examine the compound CCCCCCCc1cc(OC)c2ccccc2n1 ; what inhibition value has been reported?
**A:** -23

**Q:** Suppose we examine the compound CCCCCCCc1[nH]c2ccc([N+](=O)[O-])cc2c(=O)c1CO ; what inhibition value has been reported?
**A:** 45

**Q:** Suppose we examine the compound CCCCCCCc1[nH]c2ccc([N+](=O)[O-])cc2c(=O)c1C(=O)NO ; what inhibition value has been reported?
**A:** 30

**Q:** Suppose we examine the compound CCCCCCCc1[nH]c2ccc([N+](=O)[O-])cc2c(=O)c1C(=O)O ; what inhibition value has been reported?
**A:** 11

**Q:** Suppose we examine the compound CCCCCOCc1[nH]c2ccc([N+](=O)[O-])cc2c(=O)c1C(=O)OCC ; what inhibition value has been reported?
**A:** 2

---

Exercise: for every item that follows, state its recorded solubility.
testDescription: Aqueous solubility of the compound in 2% DMSO at pH 7.4 by HPLC analysis
Assay type: physicochemical
particulars: aqueous medium with 2% DMSO

**Q:** Suppose we examine the compound CCCCCCCc1cc(=O)c2cc(C(F)(F)F)ccc2[nH]1 ; what solubility value has been reported?
**A:** < 5 µM

**Q:** Suppose we examine the compound CCCCCCCc1[nH]c2ccncc2c(=O)c1C(=O)OCC ; what solubility value has been reported?
**A:** 50 µM

**Q:** Suppose we examine the compound CCCCCCCc1[nH]c2ccccc2c(=O)c1C(N)=O ; what solubility value has been reported?
**A:** 5 µM

**Q:** Suppose we examine the compound CCCCCCCc1[nH]c2ccccc2c(=O)c1C(=O)O ; what solubility value has been reported?
**A:** 15 µM

**Q:** Suppose we examine the compound CCOCCCCc1cc(=O)c2cc(C(F)(F)F)ccc2[nH]1 ; what solubility value has been reported?
**A:** > 200 µM

**Q:** Suppose we examine the compound CCCCCCCc1cc(=O)c2cnccc2[nH]1 ; what solubility value has been reported?
**A:** 50 µM

**Q:** Suppose we examine the compound CCOCCCCc1[nH]c2ccc([N+](=O)[O-])cc2c(=O)c1C(=O)OCC ; what solubility value has been reported?
**A:** 5 µM

**Q:** Suppose we examine the compound CCOCCCCc1[nH]c2ccc([N+](=O)[O-])cc2c(=O)c1C(=O)O ; what solubility value has been reported?
**A:** 50 µM

**Q:** Suppose we examine the compound CCCCCCCc1[nH]c2ccccc2c(=O)c1C(=O)NO ; what solubility value has been reported?
**A:** > 200 µM

**Q:** Suppose we examine the compound CCCCCCCc1cc(OC)c2ccccc2n1 ; what solubility value has been reported?
**A:** 5 µM

**Q:** Suppose we examine the compound CCCCCOCc1cc(=O)c2cc(C(F)(F)F)ccc2[nH]1 ; what solubility value has been reported?
**A:** 15 µM

**Q:** Suppose we examine the compound CCCCCCCc1[nH]c2ccccc2c(=O)c1N ; what solubility value has been reported?
**A:** 50 µM

---

Tested on: Pseudomonas aeruginosa
testDescription: Agonist activity at Pseudomonas aeruginosa PqsR expressed in Escherichia coli DH5alpha assessed as induction of transcriptional activity at 5 uM by beta-galactosidase reporter gene assay relative to PQS
Output Fulfilled for records whose Activity is lower than 0.5%, Not fulfilled for records at or above 0.5%.

**Q:** Determine whether this compound shows Activity lower than 0.5% (ties excluded): CCCCCCCc1[nH]c2ccccc2c(=O)c1C(=O)O
**A:** Not fulfilled

**Q:** Determine whether this compound shows Activity lower than 0.5% (ties excluded): CCOCCCCc1[nH]c2ccc([N+](=O)[O-])cc2c(=O)c1C(=O)OCC
**A:** Fulfilled

**Q:** Determine whether this compound shows Activity lower than 0.5% (ties excluded): CCCCCCCc1[nH]c2ccccc2c(=O)c1C(=O)OCC
**A:** Fulfilled

**Q:** Determine whether this compound shows Activity lower than 0.5% (ties excluded): CCCCCCCc1cc(=O)c2cc(C(F)(F)F)ccc2[nH]1
**A:** Fulfilled

**Q:** Determine whether this compound shows Activity lower than 0.5% (ties excluded): CCOCCCCc1cc(=O)c2cc(C(F)(F)F)ccc2[nH]1
**A:** Fulfilled

**Q:** Determine whether this compound shows Activity lower than 0.5% (ties excluded): CCCCCCCc1[nH]c2ccncc2c(=O)c1C(=O)O
**A:** Not fulfilled

**Q:** Determine whether this compound shows Activity lower than 0.5% (ties excluded): CCCCCCCc1[nH]c2ccccc2c(=O)c1N
**A:** Not fulfilled

**Q:** Determine whether this compound shows Activity lower than 0.5% (ties excluded): CCCCCOCc1cc(=O)c2cc([N+](=O)[O-])ccc2[nH]1
**A:** Fulfilled

**Q:** Determine whether this compound shows Activity lower than 0.5% (ties excluded): CCCCCOCc1[nH]c2ccc([N+](=O)[O-])cc2c(=O)c1C(=O)O
**A:** Fulfilled

**Q:** Determine whether this compound shows Activity lower than 0.5% (ties excluded): CCCCCCCc1[nH]c2ccc([N+](=O)[O-])cc2c(=O)c1O
**A:** Not fulfilled

**Q:** Determine whether this compound shows Activity lower than 0.5% (ties excluded): CCCCCCCc1[nH]c2ccc([N+](=O)[O-])cc2c(=O)c1C(=O)OCC
**A:** Fulfilled

---

Tested on: Pseudomonas aeruginosa
testDescription: Antagonist activity at Pseudomonas aeruginosa PqsR expressed in Escherichia coli DH5alpha assessed as inhibition of PQS-induced transcriptional activity at 5 uM by beta-galactosidase reporter gene assay relative to PQS
# label = Satisfied if inhibition >= 30% else Not satisfied

**Q:** Item CCCCCCCc1[nH]c2ccccc2c(=O)c1C(=O)NO with inhibition of 30% or above?
**A:** Not satisfied

**Q:** Item CCCCCCCc1cc(=O)c2cc(C(F)(F)F)ccc2n1C with inhibition of 30% or above?
**A:** Satisfied

**Q:** Item CCCCCCCc1cc(OC)c2ccccc2n1 with inhibition of 30% or above?
**A:** Not satisfied

**Q:** Item CCCCCOCc1cc(=O)c2cc([N+](=O)[O-])ccc2[nH]1 with inhibition of 30% or above?
**A:** Satisfied

**Q:** Item CCOCCCCc1cc(=O)c2cc([N+](=O)[O-])ccc2[nH]1 with inhibition of 30% or above?
**A:** Satisfied

**Q:** Item CCCCCCCc1[nH]c2ccc([N+](=O)[O-])cc2c(=O)c1C(=O)O with inhibition of 30% or above?
**A:** Satisfied

**Q:** Item CCCCCCCc1[nH]c2ccccc2c(=O)c1CO with inhibition of 30% or above?
**A:** Not satisfied

**Q:** Item CCCCCOCc1cc(=O)c2ccccc2[nH]1 with inhibition of 30% or above?
**A:** Not satisfied

**Q:** Item CCCCCCc1cc(=O)c2cc(C(F)(F)F)ccc2n1C with inhibition of 30% or above?
**A:** Satisfied

**Q:** Item CCOCCCCc1[nH]c2ccc([N+](=O)[O-])cc2c(=O)c1C(=O)OCC with inhibition of 30% or above?
**A:** Not satisfied

**Q:** Item CCCCCCCc1[nH]c2ccccc2c(=O)c1N with inhibition of 30% or above?
**A:** Not satisfied

**Q:** Item CCCCCCCc1cc(=O)c2cc(C(F)(F)F)ccc2[nH]1 with inhibition of 30% or above?
**A:** Satisfied

**Q:** Item CCCCCCCc1[nH]c2ccccc2c(=O)c1C(N)=O with inhibition of 30% or above?
**A:** Not satisfied

**Q:** Item CCCCCOCc1[nH]c2ccc([N+](=O)[O-])cc2c(=O)c1C(=O)OCC with inhibition of 30% or above?
**A:** Not satisfied

**Q:** Item CCCCCCCc1[nH]c2ccccc2c(=O)c1C(=O)OCC with inhibition of 30% or above?
**A:** Satisfied

**Q:** Item CCCCCCCc1[nH]c2ccncc2c(=O)c1C(=O)O with inhibition of 30% or above?
**A:** Not satisfied

**Q:** Item CCCCCCCc1[nH]c2ccc([N+](=O)[O-])cc2c(=O)c1C(=O)OCC with inhibition of 30% or above?
**A:** Not satisfied

**Q:** Item CCCCCCCc1[nH]c2ccc([N+](=O)[O-])cc2c(=O)c1C(=O)NO with inhibition of 30% or above?
**A:** Satisfied

**Q:** Item CCCCCCCc1cc(=O)c2cc([N+](=O)[O-])ccc2[nH]1 with inhibition of 30% or above?
**A:** Satisfied

**Q:** Item CCCCCOCc1[nH]c2ccc([N+](=O)[O-])cc2c(=O)c1C(=O)O with inhibition of 30% or above?
**A:** Not satisfied
